The reported numbers originate from patent EP4813991A1.

- Test system: MDA-MB-231 breast cancer cells
- methodDescription: Proliferation inhibitory activity assay against MDA-MB-231 breast cancer cells
- Type: cell-based
- reportedConditions: Homo sapiens, 72 hours, CellTiter Glo, relative IC50
- Experimental: Experiments were performed using the MDA-MB-231 breast cancer cell line to measure the cell proliferation inhibitory ability of each Example compound. […] Luminescence signals were measured after inserting the 96-well plate into an Envision plate reader (PerkinElmer). Relative IC50 values were calculated by fitting a dose-response curve using XLfit (IDBS Ltd) software. […]
pIC50: −log10 of the molar value.
quantityMeasured: pIC50

Solved cases below.
{"compound": "Cc1cnc2c(NCc3nc4ccc(F)c(F)c4[nH]3)cc(N3CCOCC3)nn12", "pIC50": "< 6.30"}
{"compound": "N#CC1(O)CN(c2cc(NCc3nc4cc(Cl)c(Cl)cc4[nH]3)c3ncc(C(F)(F)F)n3n2)C1", "pIC50": "≥ 7.30"}
{"compound": "FC(F)(F)c1cnc2c(NCc3cn4cccnc4n3)cc(N3CCOCC3)nn12", "pIC50": "6.30 to 7.30"}
{"compound": "OC1CN(c2cc(NCc3nc4cc(Cl)c(Cl)cc4[nH]3)c3ncc(C(F)(F)F)n3n2)C1", "pIC50": "6.30 to 7.30"}
{"compound": "NC(=O)C1CCN(c2cc(NCc3nc4cc(Cl)c(Cl)cc4[nH]3)c3ncc(C(F)(F)F)n3n2)CC1", "pIC50": "6.30 to 7.30"}
{"compound": "N[C@H]1CCN(c2cc(NCc3nc4ccc(F)c(F)c4[nH]3)c3ncc(C(F)(F)F)n3n2)C1", "pIC50": "≥ 7.30"}
{"compound": "CN1CCN(c2cc(NCc3nc4ccc(F)c(F)c4[nH]3)c3ncc(C(F)(F)F)n3n2)CC1", "pIC50": "≥ 7.30"}
{"compound": "CC(=O)N1CCN(c2cc(NCc3nc4cc(Cl)c(Cl)cc4[nH]3)c3ncc(C(F)(F)F)n3n2)CC1", "pIC50": "≥ 7.30"}

Specify pIC50 for Fc1ccc2nc(CNc3cc(N4CC5CCC(C4)O5)nn4c(C(F)(F)F)cnc34)[nH]c2c1F , system MDA-MB-231 breast cancer cells.
≥ 7.30

----------
- Tested on: MDA-MB-231 breast cancer cells
- methodDescription: Proliferation inhibitory activity assay against MDA-MB-231 breast cancer cells
- Assay type: cell-based
- reportedConditions: Homo sapiens, 72 hours, CellTiter Glo, relative IC50
pIC50: −log10 of the molar value.
quantityMeasured: pIC50

Solved cases below.
{"compound": "CN1CCN(c2cc(NCc3nc4cc(F)c(F)cc4[nH]3)c3ncc(C(F)(F)F)n3n2)CC1", "pIC50": "≥ 7.30"}
{"compound": "FC(F)(F)c1cnc2c(NCc3nc4cc(Cl)c(Cl)cc4[nH]3)cc(N3CC4CC(C4)C3)nn12", "pIC50": "< 6.30"}
{"compound": "FC(F)(F)c1cnc2c(NCc3nc4cc(Cl)c(Cl)cc4[nH]3)cc(N3C4CNCC3C4)nn12", "pIC50": "≥ 7.30"}

# context switch: different molecule, same pIC50
Tell me pIC50 reported for FC(F)(F)c1cnc2c(NCc3cn4ncccc4n3)cc(N3CCOCC3)nn12
< 6.30

----------
- Test system: MDA-MB-231 breast cancer cells
- methodDescription: Proliferation inhibitory activity assay against MDA-MB-231 breast cancer cells
- Assay type: cell-based
- reportedConditions: Homo sapiens, 72 hours, CellTiter Glo, relative IC50
pIC50: −log10 of the molar value.
quantityMeasured: pIC50

Solved cases below.
{"compound": "C[C@@H]1CN(c2cc(NCc3nc4cc(F)c(F)cc4[nH]3)c3ncc(C(F)(F)F)n3n2)C[C@H](C)N1", "testTarget": "MDA-MB-231 breast cancer cells", "pIC50": "≥ 7.30"}
{"compound": "FC(F)(F)c1cnc2c(NCc3nc4ccncc4[nH]3)cc(N3CCOCC3)nn12", "testTarget": "MDA-MB-231 breast cancer cells", "pIC50": "6.30 to 7.30"}
{"compound": "OC1CC2(C1)CN(c1cc(NCc3nc4cc(Cl)c(Cl)cc4[nH]3)c3ncc(C(F)(F)F)n3n1)C2", "testTarget": "MDA-MB-231 breast cancer cells", "pIC50": "≥ 7.30"}

Tell me pIC50 reported for O=C(CO)NC1CN(c2cc(NCc3nc4cc(Cl)c(Cl)cc4[nH]3)c3ncc(C(F)(F)F)n3n2)C1
6.30 to 7.30

Tell me pIC50 reported for FC(F)(F)c1cnc2c(NCc3cn4ccccc4n3)cc(N3CCOCC3)nn12
6.30 to 7.30

----------
This section presents molecules with their documented IC50 values.
- testTarget: CDK13 (Homo sapiens)
- Sequence (Q14004 whole entry, species assumed): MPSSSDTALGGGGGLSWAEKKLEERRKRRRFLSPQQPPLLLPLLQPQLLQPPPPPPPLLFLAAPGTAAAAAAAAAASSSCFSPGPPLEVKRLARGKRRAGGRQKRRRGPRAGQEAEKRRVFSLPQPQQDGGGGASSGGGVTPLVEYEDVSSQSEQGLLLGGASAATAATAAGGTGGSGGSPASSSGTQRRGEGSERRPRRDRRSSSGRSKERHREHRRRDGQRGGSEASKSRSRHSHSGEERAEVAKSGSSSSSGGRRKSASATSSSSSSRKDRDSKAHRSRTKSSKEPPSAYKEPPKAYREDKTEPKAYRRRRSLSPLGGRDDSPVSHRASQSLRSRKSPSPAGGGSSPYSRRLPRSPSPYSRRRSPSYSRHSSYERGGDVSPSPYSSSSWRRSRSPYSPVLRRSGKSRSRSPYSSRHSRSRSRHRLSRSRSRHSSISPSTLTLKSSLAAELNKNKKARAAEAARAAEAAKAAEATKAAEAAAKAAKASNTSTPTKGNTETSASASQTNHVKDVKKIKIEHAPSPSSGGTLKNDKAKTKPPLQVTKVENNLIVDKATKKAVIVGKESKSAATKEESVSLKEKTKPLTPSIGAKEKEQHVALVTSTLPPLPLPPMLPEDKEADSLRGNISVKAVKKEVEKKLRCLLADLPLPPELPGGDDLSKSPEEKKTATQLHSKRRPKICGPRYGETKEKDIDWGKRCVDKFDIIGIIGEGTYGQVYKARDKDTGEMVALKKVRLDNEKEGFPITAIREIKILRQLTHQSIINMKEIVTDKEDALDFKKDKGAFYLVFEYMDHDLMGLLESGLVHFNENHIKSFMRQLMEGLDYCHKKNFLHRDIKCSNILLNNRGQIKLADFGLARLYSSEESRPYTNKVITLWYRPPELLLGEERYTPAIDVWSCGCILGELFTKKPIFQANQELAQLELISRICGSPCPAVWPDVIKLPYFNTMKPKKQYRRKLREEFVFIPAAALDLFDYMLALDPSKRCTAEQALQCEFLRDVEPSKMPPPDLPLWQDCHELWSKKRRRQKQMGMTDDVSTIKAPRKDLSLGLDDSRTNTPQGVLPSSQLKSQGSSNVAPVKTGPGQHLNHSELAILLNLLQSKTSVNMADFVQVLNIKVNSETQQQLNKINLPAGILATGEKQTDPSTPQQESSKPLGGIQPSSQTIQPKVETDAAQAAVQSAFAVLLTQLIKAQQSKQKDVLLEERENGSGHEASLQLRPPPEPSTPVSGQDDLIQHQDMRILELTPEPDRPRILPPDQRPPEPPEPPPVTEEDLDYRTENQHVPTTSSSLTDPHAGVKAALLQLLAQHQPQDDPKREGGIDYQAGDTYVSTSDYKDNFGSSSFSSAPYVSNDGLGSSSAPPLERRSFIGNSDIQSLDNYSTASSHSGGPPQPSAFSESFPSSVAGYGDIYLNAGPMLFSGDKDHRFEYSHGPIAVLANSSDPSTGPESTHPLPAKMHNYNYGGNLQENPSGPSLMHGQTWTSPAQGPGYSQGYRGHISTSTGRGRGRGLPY
- Sequence (O75909 whole entry partner, species assumed): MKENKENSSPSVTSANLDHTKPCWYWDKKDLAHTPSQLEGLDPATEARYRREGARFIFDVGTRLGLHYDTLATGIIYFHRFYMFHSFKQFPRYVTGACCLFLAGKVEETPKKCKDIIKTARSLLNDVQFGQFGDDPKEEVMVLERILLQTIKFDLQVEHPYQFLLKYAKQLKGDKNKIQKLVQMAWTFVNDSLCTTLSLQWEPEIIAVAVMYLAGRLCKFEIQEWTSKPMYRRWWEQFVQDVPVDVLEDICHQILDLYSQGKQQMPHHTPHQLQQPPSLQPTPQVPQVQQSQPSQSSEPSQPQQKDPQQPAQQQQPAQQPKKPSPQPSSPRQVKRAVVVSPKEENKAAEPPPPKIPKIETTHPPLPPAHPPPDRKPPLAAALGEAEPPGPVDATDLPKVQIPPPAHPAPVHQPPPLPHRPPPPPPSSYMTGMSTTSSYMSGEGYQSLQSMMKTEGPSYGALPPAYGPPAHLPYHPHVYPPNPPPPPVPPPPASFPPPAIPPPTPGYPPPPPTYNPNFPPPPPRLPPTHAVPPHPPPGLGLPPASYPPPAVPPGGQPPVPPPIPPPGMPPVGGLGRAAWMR
- methodDescription: CDK13 kinase inhibitory activity assay (33P-ATP filter binding)
- Assay type: biochemical
- reportedConditions: kinase reaction 120 minutes, 33P-gamma-ATP; read-out: CDK13 IC50

Solved cases below.
{"molecule": "Nc1ncc(-c2cc(NCc3nc4ccc(F)c(F)c4[nH]3)c3ncc(C#CC4CC4)n3n2)cn1 [Example 21]", "IC50": "> 500 nM"}
{"molecule": "O=C(CO)N1CCN(c2cc(NCc3nc4cc(Cl)c(Cl)cc4[nH]3)c3ncc(C(F)(F)F)n3n2)CC1 [Example 102]", "IC50": "< 100 nM"}
{"molecule": "FC(F)(F)c1cnc2c(NCc3nc4cc(Cl)c(Cl)cc4[nH]3)cc(N3CC4CC(C3)N4)nn12 [Example 97]", "IC50": "< 100 nM"}
{"molecule": "COc1cc2nc(CNc3cc(N4CCOCC4)nn4c(C(F)(F)F)cnc34)[nH]c2cc1Cl [Example 71]", "IC50": "< 100 nM"}
{"molecule": "N#CC1CCN(c2cc(NCc3nc4ccc(F)c(F)c4[nH]3)c3ncc(C(F)(F)F)n3n2)CC1 [Example 56]", "IC50": "< 100 nM"}

Tell me IC50 reported for N[C@@H]1CCN(c2cc(NCc3nc4ccc(F)c(F)c4[nH]3)c3ncc(C(F)(F)F)n3n2)C1 [Example 37]
< 100 nM

Tell me IC50 reported for Fc1ccc2nc(CNc3cc(N4CCOCC4)nn4c(C5CC5)cnc34)[nH]c2c1F [Example 23]
< 100 nM

Tell me IC50 reported for N#CC1(O)CCN(c2cc(NCc3nc4cc(Cl)c(Cl)cc4[nH]3)c3ncc(C(F)(F)F)n3n2)C1 (stereo not shown) [Example 61]
100 to 500 nM

Tell me IC50 reported for Cc1cc2[nH]c(CNc3cc(N4CCOCC4)nn4c(C(F)(F)F)cnc34)nc2cc1Cl [Example 79]
< 100 nM

----------
- testTarget: CDK12 (Homo sapiens, UniProt Q9NYV4)
- Sequence (Q9NYV4 whole entry, species assumed, one chain of several): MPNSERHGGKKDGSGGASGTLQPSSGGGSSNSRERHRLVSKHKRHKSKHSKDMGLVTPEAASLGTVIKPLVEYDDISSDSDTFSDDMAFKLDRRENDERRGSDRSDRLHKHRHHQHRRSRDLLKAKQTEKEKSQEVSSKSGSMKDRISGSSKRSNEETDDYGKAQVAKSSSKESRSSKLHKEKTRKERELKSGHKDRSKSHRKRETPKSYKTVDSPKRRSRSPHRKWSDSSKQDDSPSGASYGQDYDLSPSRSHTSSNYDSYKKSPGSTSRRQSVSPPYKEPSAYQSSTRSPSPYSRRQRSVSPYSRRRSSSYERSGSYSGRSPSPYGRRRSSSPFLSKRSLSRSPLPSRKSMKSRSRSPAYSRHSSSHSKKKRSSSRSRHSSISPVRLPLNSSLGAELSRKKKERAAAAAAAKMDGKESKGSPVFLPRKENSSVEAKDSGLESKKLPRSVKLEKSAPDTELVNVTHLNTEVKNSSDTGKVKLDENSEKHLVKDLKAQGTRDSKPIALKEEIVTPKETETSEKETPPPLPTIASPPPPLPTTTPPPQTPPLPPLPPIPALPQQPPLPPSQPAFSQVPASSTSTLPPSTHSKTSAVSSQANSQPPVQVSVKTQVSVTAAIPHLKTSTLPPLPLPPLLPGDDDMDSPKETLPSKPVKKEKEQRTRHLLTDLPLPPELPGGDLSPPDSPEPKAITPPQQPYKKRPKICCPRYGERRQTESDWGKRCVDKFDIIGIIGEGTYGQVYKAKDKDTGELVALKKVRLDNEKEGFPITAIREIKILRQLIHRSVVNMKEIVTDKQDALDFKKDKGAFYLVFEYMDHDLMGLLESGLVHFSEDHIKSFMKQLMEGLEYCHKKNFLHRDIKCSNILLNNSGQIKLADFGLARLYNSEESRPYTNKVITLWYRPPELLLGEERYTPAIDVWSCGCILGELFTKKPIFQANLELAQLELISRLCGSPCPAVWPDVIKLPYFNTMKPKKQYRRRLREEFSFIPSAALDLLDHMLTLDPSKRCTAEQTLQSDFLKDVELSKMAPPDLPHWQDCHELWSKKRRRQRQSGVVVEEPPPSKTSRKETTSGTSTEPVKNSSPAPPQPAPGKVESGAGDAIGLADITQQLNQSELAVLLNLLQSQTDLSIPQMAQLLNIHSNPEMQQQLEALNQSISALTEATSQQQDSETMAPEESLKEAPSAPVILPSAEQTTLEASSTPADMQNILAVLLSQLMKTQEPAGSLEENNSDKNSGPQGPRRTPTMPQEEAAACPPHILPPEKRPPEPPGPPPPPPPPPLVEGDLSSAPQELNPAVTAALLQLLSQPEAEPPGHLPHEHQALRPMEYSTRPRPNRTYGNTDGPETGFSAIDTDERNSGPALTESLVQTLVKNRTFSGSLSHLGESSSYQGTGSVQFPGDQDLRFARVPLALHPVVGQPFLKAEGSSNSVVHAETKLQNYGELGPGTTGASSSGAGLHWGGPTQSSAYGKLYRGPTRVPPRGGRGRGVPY
- methodDescription: Cellular CDK12 inhibitory activity assay (Ser2 phosphorylation of RNA polymerase II subunit B1 CTD in MDA-MB-231 cells)
- Type: cell-based
- Set-up: using MDA-MB-231 breast cancer cells; endogenous in cells; host or cells: MDA-MB-231
- reportedConditions: MDA-MB-231 cells, 6 hours treatment; read-out: pRpbl CTD S2 IC50
This section presents compounds with their documented IC50 values.

Solved cases below.
{"compound": "O[C@H]1CCN(c2cc(NCc3nc4cc(Cl)c(Cl)cc4[nH]3)c3ncc(C(F)(F)F)n3n2)C1 [Example 63]", "IC50": "< 300 nM"}
{"compound": "OC1CC2CCC(C1)N2c1cc(NCc2nc3cc(Cl)c(Cl)cc3[nH]2)c2ncc(C(F)(F)F)n2n1 (centres unmarked) [Example 101]", "IC50": "< 300 nM"}
{"compound": "FC(F)(F)c1cnc2c(NCc3nc4cc(Cl)c(Cl)cc4s3)cc(N3CCOCC3)nn12 [Example 93]", "IC50": "300 to 3000 nM"}

Tell me IC50 reported for O=C(CO)NC1CN(c2cc(NCc3nc4cc(Cl)c(Cl)cc4[nH]3)c3ncc(C(F)(F)F)n3n2)C1 [Example 103]
300 to 3000 nM

Tell me IC50 reported for Fc1ccc2nc(CNc3cc(N4CCOCC4)nn4c(Cl)cnc34)[nH]c2c1F [Example 27]
> 3000 nM

Tell me IC50 reported for Fc1ccc2nc(CNc3cc(N4CC5CCC4CO5)nn4c(C(F)(F)F)cnc34)[nH]c2c1F (centres unmarked) [Example 12]
< 300 nM

Tell me IC50 reported for CN1CCN(c2cc(NCc3nc4cc(Cl)c(Cl)cc4[nH]3)c3ncc(C(F)(F)F)n3n2)CC1 [Example 29]
< 300 nM

Tell me IC50 reported for Fc1ccc2nc(CNc3cc(N4CCOCC4)nn4c(CC(F)(F)F)cnc34)[nH]c2c1F [Example 2]
300 to 3000 nM

----------
- Test system: NCI-N87
- methodDescription: Gastric cancer cell proliferation inhibitory activity (Cell Counting Kit-8), NCI-N87
- Type: cell-based
- reportedConditions: Homo sapiens, 72 hours, Cell Counting Kit-8, relative IC50
quantityMeasured: IC50

Tell me IC50 reported for CN1CCN(c2cc(NCc3nc4ccc(F)c(F)c4[nH]3)c3ncc(C(F)(F)F)n3n2)CC1
≤ 200 nM
